Sourced from patent US11771738B2

Tested on: third stage larvae of Haemonchus contortus
Assay: Haemonchus contortus, Larvae Stage 3 (HcL3) In Vitro Assay
Format: cell-based
Conditions: Haemonchus contortus, 96 h, read-out: HcL3 MED, Minimum Effective Dose, H. contortus third stage larvae, approximately 96 hours
attribute-measured: minimal effective concentration (µM)
Your answer is read as µM, so omit the unit and give the number.

Example results:
{"substance-smiles": "Cc1nnsc1Cc1ccc(C[C@H]2OC(=O)[C@H](CC(C)C)N(C)C(=O)[C@@H](C)OC(=O)[C@H](CC(C)C)N(C)C(=O)[C@@H](Cc3ccc(Cc4snnc4C)cc3)OC(=O)[C@H](CC(C)C)N(C)C(=O)[C@@H](C)OC(=O)[C@H](CC(C)C)N(C)C2=O)cc1", "unit-text": "µM", "minimal effective concentration": 1}
{"substance-smiles": "Cc1ccncc1Cc1ccc(C[C@H]2OC(=O)[C@H](CC(C)C)N(C)C(=O)[C@@H](C)OC(=O)[C@H](CC(C)C)N(C)C(=O)[C@@H](Cc3ccc(Cc4cnccc4C)cc3)OC(=O)[C@H](CC(C)C)N(C)C(=O)[C@@H](C)OC(=O)[C@H](CC(C)C)N(C)C2=O)cc1", "unit-text": "µM", "minimal effective concentration": 5.7}

Q: Can you look up the measured minimal effective concentration of Cc1cnccc1Cc1ccc(C[C@H]2OC(=O)[C@H](CC(C)C)N(C)C(=O)[C@@H](C)OC(=O)[C@H](CC(C)C)N(C)C(=O)[C@@H](Cc3ccc(Cc4ccncc4F)cc3)OC(=O)[C@H](CC(C)C)N(C)C(=O)[C@@H](C)OC(=O)[C@H](CC(C)C)N(C)C2=O)cc1 for me?
Result: 3.3

Q: What do you have for CC(C)C[C@H]1C(=O)O[C@H](Cc2ccc(Cc3cncnc3C(C)C)cc2)C(=O)N(C)[C@@H](CC(C)C)C(=O)O[C@H](C)C(=O)N(C)[C@@H](CC(C)C)C(=O)O[C@H](Cc2ccc(Cc3cncnc3C(C)C)cc2)C(=O)N(C)[C@@H](CC(C)C)C(=O)O[C@H](C)C(=O)N1C ?
Result: 1

====

Recorded measurements of minimal effective concentration, one per entry
Test system: third stage larvae of Haemonchus contortus
Test: Haemonchus contortus, Larvae Stage 3 (HcL3) In Vitro Assay
Assay type: cell-based
Conditions: Haemonchus contortus, 96 h, read-out: HcL3 MED, Minimum Effective Dose, H. contortus third stage larvae, approximately 96 hours

{"compound": "COc1ncccc1C(C)c1ccc(C[C@H]2OC(=O)[C@H](CC(C)C)N(C)C(=O)[C@@H](C)OC(=O)[C@H](CC(C)C)N(C)C(=O)[C@@H](Cc3ccc(C(C)c4cccnc4OC)cc3)OC(=O)[C@H](CC(C)C)N(C)C(=O)[C@@H](C)OC(=O)[C@H](CC(C)C)N(C)C2=O)cc1 (stereo partly drawn)", "minimal effective concentration": "> 100 µM"}
{"compound": "CC(C)C[C@H]1C(=O)O[C@H](Cc2ccc(Cc3coc(C#N)c3)cc2)C(=O)N(C)[C@@H](CC(C)C)C(=O)O[C@H](C)C(=O)N(C)[C@@H](CC(C)C)C(=O)O[C@H](Cc2ccc(Cc3coc(C#N)c3)cc2)C(=O)N(C)[C@@H](CC(C)C)C(=O)O[C@H](C)C(=O)N1C", "minimal effective concentration": "> 10 µM"}

Next compound, please.
Q: Can you look up the measured minimal effective concentration of CC(C)C[C@H]1C(=O)O[C@H](Cc2ccc(Cc3ccc(C(F)F)nc3)cc2)C(=O)N(C)[C@@H](CC(C)C)C(=O)O[C@H](C)C(=O)N(C)[C@@H](CC(C)C)C(=O)O[C@H](Cc2ccc(Cc3ccc(C(F)F)nc3)cc2)C(=O)N(C)[C@@H](CC(C)C)C(=O)O[C@H](C)C(=O)N1C for me?
Result: > 10 µM

====

Tested on: D. immitis L4 larvae
Experiment: Dirofilaria immitis, L4 Stage (DiL4) In Vitro Assay
Assay type: cell-based
Conditions: larval stage selectivity, ratio of DiMf MED to DiL4 MED
Recorded measurements of DiMf/DiL4, one per entry
I'd appreciate a reply containing only the number, no unit.

Example results:
{"substance-smiles": "CC(C)C[C@H]1C(=O)O[C@H](Cc2ccc(Cc3ccnn3CC3CC3)cc2)C(=O)N(C)[C@@H](CC(C)C)C(=O)O[C@H](C)C(=O)N(C)[C@@H](CC(C)C)C(=O)O[C@H](Cc2ccc(Cc3ccnn3CC3CC3)cc2)C(=O)N(C)[C@@H](CC(C)C)C(=O)O[C@H](C)C(=O)N1C", "DiMf/DiL4": 10}
{"substance-smiles": "CC(C)C[C@H]1C(=O)O[C@H](Cc2ccc(Cc3cccnc3C3CC3)cc2)C(=O)N(C)[C@@H](CC(C)C)C(=O)O[C@H](C)C(=O)N(C)[C@@H](CC(C)C)C(=O)O[C@H](Cc2ccc(Cc3cccnc3C3CC3)cc2)C(=O)N(C)[C@@H](CC(C)C)C(=O)O[C@H](C)C(=O)N1C", "DiMf/DiL4": 60}

Next molecule, please.
Q: Can you look up the measured DiMf/DiL4 of Cc1ccc(Cc2ccc(C[C@H]3OC(=O)[C@H](CC(C)C)N(C)C(=O)[C@@H](C)OC(=O)[C@H](CC(C)C)N(C)C(=O)[C@@H](Cc4ccc(Cc5ccc(C)nc5C)cc4)OC(=O)[C@H](CC(C)C)N(C)C(=O)[C@@H](C)OC(=O)[C@H](CC(C)C)N(C)C3=O)cc2)c(C)n1 for me?
Result: 20

====

System: third stage larvae of Haemonchus contortus
Test: Haemonchus contortus, Larvae Stage 3 (HcL3) In Vitro Assay
Assay type: cell-based
Details: Haemonchus contortus, 96 h, read-out: HcL3 MED, Minimum Effective Dose, H. contortus third stage larvae, approximately 96 hours
attribute-measured: minimal effective concentration (µM)
Your answer is read as µM, so omit the unit and give the number.

Example results:
{"compound": "CC(C)C[C@H]1C(=O)O[C@H](Cc2ccc(Cc3sccc3Cl)cc2)C(=O)N(C)[C@@H](CC(C)C)C(=O)O[C@H](C)C(=O)N(C)[C@@H](CC(C)C)C(=O)O[C@H](Cc2ccccc2)C(=O)N(C)[C@@H](CC(C)C)C(=O)O[C@H](C)C(=O)N1C [Example 4-75]", "attribute-measured": "minimal effective concentration", "recorded-value": 1}
{"compound": "CC(C)C[C@H]1C(=O)O[C@H](Cc2ccc(Cc3ncco3)cc2)C(=O)N(C)[C@@H](CC(C)C)C(=O)O[C@H](C)C(=O)N(C)[C@@H](CC(C)C)C(=O)O[C@H](Cc2ccc(Cc3ncco3)cc2)C(=O)N(C)[C@@H](CC(C)C)C(=O)O[C@H](C)C(=O)N1C [Example 3-18]", "attribute-measured": "minimal effective concentration", "recorded-value": 1}
{"compound": "CC(C)C[C@H]1C(=O)O[C@H](Cc2ccc(Cc3cccnc3C(F)F)cc2)C(=O)N(C)[C@@H](CC(C)C)C(=O)O[C@H](C)C(=O)N(C)[C@@H](CC(C)C)C(=O)O[C@H](Cc2ccc(Cc3cccnc3C(F)F)cc2)C(=O)N(C)[C@@H](CC(C)C)C(=O)O[C@H](C)C(=O)N1C [Example 3-290]", "attribute-measured": "minimal effective concentration", "recorded-value": 0.2}

Next compound, please.
Q: Can you look up the measured minimal effective concentration of CC(C)C[C@H]1C(=O)O[C@H](Cc2ccc(Cc3cncnc3C(F)F)cc2)C(=O)N(C)[C@@H](CC(C)C)C(=O)O[C@H](C)C(=O)N(C)[C@@H](CC(C)C)C(=O)O[C@H](Cc2ccc(Cc3cncnc3C(F)F)cc2)C(=O)N(C)[C@@H](CC(C)C)C(=O)O[C@H](C)C(=O)N1C [Example 3-321] for me?
Result: 0.3

====

Tested on: D. immitis L4 larvae
Assay: Dirofilaria immitis, L4 Stage (DiL4) In Vitro Assay
Assay type: cell-based
Settings: larval stage selectivity, ratio of DiMf MED to DiL4 MED
Mark 1 (yes) only for DiMf/DiL4 values smaller than 20; exact matches and larger values are 0 (no).

Solved entries (count: 5):
{"compound": "COc1ccsc1Cc1ccc(C[C@H]2OC(=O)[C@H](CC(C)C)N(C)C(=O)[C@@H](C)OC(=O)[C@H](CC(C)C)N(C)C(=O)[C@@H](Cc3ccccc3)OC(=O)[C@H](CC(C)C)N(C)C(=O)[C@@H](C)OC(=O)[C@H](CC(C)C)N(C)C2=O)cc1", "label-value": "0 (no)"}
{"compound": "CC(C)C[C@H]1C(=O)O[C@H](Cc2ccc(Cc3sccc3Br)cc2)C(=O)N(C)[C@@H](CC(C)C)C(=O)O[C@H](C)C(=O)N(C)[C@@H](CC(C)C)C(=O)O[C@H](Cc2ccc(Cc3sccc3Br)cc2)C(=O)N(C)[C@@H](CC(C)C)C(=O)O[C@H](C)C(=O)N1C", "label-value": "0 (no)"}
{"compound": "CC(C)C[C@H]1C(=O)O[C@H](Cc2ccc(Cc3ccns3)cc2)C(=O)N(C)[C@@H](CC(C)C)C(=O)O[C@H](C)C(=O)N(C)[C@@H](CC(C)C)C(=O)O[C@H](Cc2ccc(Cc3ccns3)cc2)C(=O)N(C)[C@@H](CC(C)C)C(=O)O[C@H](C)C(=O)N1C", "label-value": "1 (yes)"}
{"compound": "CC(C)C[C@H]1C(=O)O[C@H](Cc2ccc([C@@H](C)c3nccs3)cc2)C(=O)N(C)[C@@H](CC(C)C)C(=O)O[C@H](C)C(=O)N(C)[C@@H](CC(C)C)C(=O)O[C@H](Cc2ccc([C@@H](C)c3nccs3)cc2)C(=O)N(C)[C@@H](CC(C)C)C(=O)O[C@H](C)C(=O)N1C", "label-value": "1 (yes)"}
{"compound": "COc1ncccc1C(C)(F)c1ccc(C[C@H]2OC(=O)[C@H](CC(C)C)N(C)C(=O)[C@@H](C)OC(=O)[C@H](CC(C)C)N(C)C(=O)[C@@H](Cc3ccc(C(C)(F)c4cccnc4OC)cc3)OC(=O)[C@H](CC(C)C)N(C)C(=O)[C@@H](C)OC(=O)[C@H](CC(C)C)N(C)C2=O)cc1 (some centres unmarked)", "label-value": "1 (yes)"}

Q: Item CC(C)C[C@H]1C(=O)O[C@H](Cc2ccc(Cc3ccsc3)cc2)C(=O)N(C)[C@@H](CC(C)C)C(=O)O[C@H](C)C(=O)N(C)[C@@H](CC(C)C)C(=O)O[C@H](Cc2ccccc2)C(=O)N(C)[C@@H](CC(C)C)C(=O)O[C@H](C)C(=O)N1C : DiMf/DiL4 beneath 20, strictly?
Result: 1 (yes)

Q: What do you have for CC(C)C[C@H]1C(=O)O[C@H](Cc2ccc(Cc3cccnc3C(F)F)cc2)C(=O)N(C)[C@@H](CC(C)C)C(=O)O[C@H](C)C(=O)N(C)[C@@H](CC(C)C)C(=O)O[C@H](Cc2ccc(Cc3cccnc3C(F)F)cc2)C(=O)N(C)[C@@H](CC(C)C)C(=O)O[C@H](C)C(=O)N1C ?
Result: 1 (yes)

Q: What do you have for CCN(CC)C(c1ccc(C[C@H]2OC(=O)[C@H](CC(C)C)N(C)C(=O)[C@@H](C)OC(=O)[C@H](CC(C)C)N(C)C(=O)[C@@H](Cc3ccccc3)OC(=O)[C@H](CC(C)C)N(C)C(=O)[C@@H](C)OC(=O)[C@H](CC(C)C)N(C)C2=O)cc1)c1ccc(F)c(F)c1 (some centres unmarked) ?
Result: 0 (no)

Q: What do you have for COc1nccc(Cc2ccc(C[C@H]3OC(=O)[C@H](CC(C)C)N(C)C(=O)[C@@H](C)OC(=O)[C@H](CC(C)C)N(C)C(=O)[C@@H](Cc4ccc(Cc5ccnc(OC)c5OC)cc4)OC(=O)[C@H](CC(C)C)N(C)C(=O)[C@@H](C)OC(=O)[C@H](CC(C)C)N(C)C3=O)cc2)c1OC ?
Result: 1 (yes)

Q: What do you have for COc1ccsc1Cc1ccc(C[C@H]2OC(=O)[C@H](CC(C)C)N(C)C(=O)[C@@H](C)OC(=O)[C@H](CC(C)C)N(C)C(=O)[C@@H](Cc3ccc(Cc4sccc4OC)cc3)OC(=O)[C@H](CC(C)C)N(C)C(=O)[C@@H](C)OC(=O)[C@H](CC(C)C)N(C)C2=O)cc1 ?
Result: 0 (no)

Q: What do you have for CC(C)C[C@H]1C(=O)O[C@H](Cc2ccc(C(O)c3coc4ccccc34)cc2)C(=O)N(C)[C@@H](CC(C)C)C(=O)O[C@H](C)C(=O)N(C)[C@@H](CC(C)C)C(=O)O[C@H](Cc2ccccc2)C(=O)N(C)[C@@H](CC(C)C)C(=O)O[C@H](C)C(=O)N1C (some centres unmarked) ?
Result: 0 (no)

Q: What do you have for CC(C)C[C@H]1C(=O)O[C@H](Cc2ccc(Cc3cncnc3C(F)(F)F)cc2)C(=O)N(C)[C@@H](CC(C)C)C(=O)O[C@H](C)C(=O)N(C)[C@@H](CC(C)C)C(=O)O[C@H](Cc2ccc(Cc3cncnc3C(F)(F)F)cc2)C(=O)N(C)[C@@H](CC(C)C)C(=O)O[C@H](C)C(=O)N1C ?
Result: 1 (yes)

Q: What do you have for CC(C)C[C@H]1C(=O)O[C@H](Cc2ccc(Cc3scnc3Cl)cc2)C(=O)N(C)[C@@H](CC(C)C)C(=O)O[C@H](C)C(=O)N(C)[C@@H](CC(C)C)C(=O)O[C@H](Cc2ccccc2)C(=O)N(C)[C@@H](CC(C)C)C(=O)O[C@H](C)C(=O)N1C ?
Result: 1 (yes)
